Measured percent binding accompanies every entry in the list below.
- study.target: T1, human B7-1 K127D on cells (Homo sapiens, UniProt P33681 35-280)
- T1 construct: mCherry-tagged point mutant; also called LYS127 ASP
- T1 chain: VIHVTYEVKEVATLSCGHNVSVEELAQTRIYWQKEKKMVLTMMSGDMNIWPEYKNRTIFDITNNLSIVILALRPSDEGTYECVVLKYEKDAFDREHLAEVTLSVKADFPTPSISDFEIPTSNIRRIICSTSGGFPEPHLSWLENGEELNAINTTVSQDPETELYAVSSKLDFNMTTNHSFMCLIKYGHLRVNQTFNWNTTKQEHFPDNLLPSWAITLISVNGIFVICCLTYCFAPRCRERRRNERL
- assay.name: cell-cell binding, flow cytometry; percent of the wild-type pair
Dear colleague, please return just the value in %, with no unit written.

Worked set:
human p75NTR F136H on cells (receptor, Fluorescent-tagged point mutant) KEACPTGLYTHSGECCKACNLGEGVAQPCGANQTVCEPCLDSVTFSDVVSATEPCKPCTECVGLQSMSAPCVEADDAVCRCAYGYYQDETTGRCEACRVCEAGSGLVHSCQDKQNTVCEECPDGTYSDEANHVDPCLPCTVCEDTERQLRECTRWADAECEEIPGRWITRSTPPEGSDSTAPSTQEPEAPPEQDLIASTVAGVVTTVMGSSQPVVTRGTTDNLIPVYCSILAAVVVGLVAYIAFKRWNSCKQNKQGANSRPVNQTPPPEGEKLHSDSGISVDSQSLHDQQPHTQTASGQALKGDGGLYSSLPPAKREEVEKLLNGSAGDTWRHLAGELGYQPEHIDSFTHEACPVRALLASWATQDSATLDALLAALRRIQRADLVESLCSESTATSPV : 16
human p75NTR F136K on cells (receptor, Fluorescent-tagged point mutant) KEACPTGLYTHSGECCKACNLGEGVAQPCGANQTVCEPCLDSVTFSDVVSATEPCKPCTECVGLQSMSAPCVEADDAVCRCAYGYYQDETTGRCEACRVCEAGSGLVKSCQDKQNTVCEECPDGTYSDEANHVDPCLPCTVCEDTERQLRECTRWADAECEEIPGRWITRSTPPEGSDSTAPSTQEPEAPPEQDLIASTVAGVVTTVMGSSQPVVTRGTTDNLIPVYCSILAAVVVGLVAYIAFKRWNSCKQNKQGANSRPVNQTPPPEGEKLHSDSGISVDSQSLHDQQPHTQTASGQALKGDGGLYSSLPPAKREEVEKLLNGSAGDTWRHLAGELGYQPEHIDSFTHEACPVRALLASWATQDSATLDALLAALRRIQRADLVESLCSESTATSPV : 23
human p75NTR P150H on cells (receptor, Fluorescent-tagged point mutant) KEACPTGLYTHSGECCKACNLGEGVAQPCGANQTVCEPCLDSVTFSDVVSATEPCKPCTECVGLQSMSAPCVEADDAVCRCAYGYYQDETTGRCEACRVCEAGSGLVFSCQDKQNTVCEECHDGTYSDEANHVDPCLPCTVCEDTERQLRECTRWADAECEEIPGRWITRSTPPEGSDSTAPSTQEPEAPPEQDLIASTVAGVVTTVMGSSQPVVTRGTTDNLIPVYCSILAAVVVGLVAYIAFKRWNSCKQNKQGANSRPVNQTPPPEGEKLHSDSGISVDSQSLHDQQPHTQTASGQALKGDGGLYSSLPPAKREEVEKLLNGSAGDTWRHLAGELGYQPEHIDSFTHEACPVRALLASWATQDSATLDALLAALRRIQRADLVESLCSESTATSPV : 11

Entry human p75NTR L165K on cells (receptor, Fluorescent-tagged point mutant; also called LEU165K*) KEACPTGLYTHSGECCKACNLGEGVAQPCGANQTVCEPCLDSVTFSDVVSATEPCKPCTECVGLQSMSAPCVEADDAVCRCAYGYYQDETTGRCEACRVCEAGSGLVFSCQDKQNTVCEECPDGTYSDEANHVDPCKPCTVCEDTERQLRECTRWADAECEEIPGRWITRSTPPEGSDSTAPSTQEPEAPPEQDLIASTVAGVVTTVMGSSQPVVTRGTTDNLIPVYCSILAAVVVGLVAYIAFKRWNSCKQNKQGANSRPVNQTPPPEGEKLHSDSGISVDSQSLHDQQPHTQTASGQALKGDGGLYSSLPPAKREEVEKLLNGSAGDTWRHLAGELGYQPEHIDSFTHEACPVRALLASWATQDSATLDALLAALRRIQRADLVESLCSESTATSPV — recorded percent binding = 19
